- Substrate: Cc1cc(=O)oc2cc(O[C@@H]3OC[C@@H](O)[C@H](O)[C@H]3O)ccc12
- Experiment: galactosyltransferase assay, HPLC-UV
- Assay type: biochemical, Homo sapiens
- Experimental Context: apparent, fixed 1 mM UDP-Gal, 10 mM MnCl2, 100 mM sodium cacodylate pH 7.0, 37 °C
Attribute Measured: kcat/Km (M⁻¹ s⁻¹)
Your answer is read as M⁻¹ s⁻¹, so omit the unit and give the number.

q: Given hβ4GalT7 (GST-β4GalT7) (Homo sapiens; H195A) (protein, truncated soluble form lacking the first 60 N-terminal amino acids (transmembrane domain and part of stem), GST fusion (tag kept), pET-41a(+), E. coli BL21(DE3), glutathione-Sepharose purified) VRGQGQETSGPPRACPPEPPPEHWEEDASWGPHRLAVLVPFRERFEELLVFVPHMRRFLSRKKIRHHIYVLNQVDHFRFNRAALINVGFLESSNSTDYIAMHDVDLLPLNEELDYGFPEAGPFHVASPELHPLYAYKTYVGGILLLSKQHYRLCNGMSNRFWGWGREDDEFYRRIKGAGLQLFRPSGITTGYKTFRHLHDPAWRKRDQKRIAAQKQEQFKVDREGGLNTVKYHVASRTALSVGGAPCTVLNIMLDCDKTATPWCTFS , state its recorded kcat/Km.
a: 3000
